test: Plasma pharmacokinetics of DEBIO1143 in patients (LC-MS/MS); type: in vivo, human; settings: human, plasma, oral, 600 mg, day 5, n=3, mean (SD)
experimental readout: Cmax (ng/mL)
Entry rule: numbers only, all in ng/mL.

What does the data say about its Cmax? Entry: CN[C@@H](C)C(=O)N[C@H]1CN(C(=O)CC(C)C)CC[C@H]2CC[C@@H](C(=O)NC(c3ccccc3)c3ccccc3)N2C1=O
7110

* * *

assay: Plasma pharmacokinetics of DEBIO1143 in patients (LC-MS/MS); type: in vivo, human; settings: human, plasma, oral, 40 mg, day 1, n=1; read-out: T 1/2 (converted)
experimental readout: half-life (h)
Entry rule: numbers only, all in h.

What does the data say about its half-life? Entry: CN[C@@H](C)C(=O)N[C@H]1CN(C(=O)CC(C)C)CC[C@H]2CC[C@@H](C(=O)NC(c3ccccc3)c3ccccc3)N2C1=O
6.38

Measured values drawn from paper PMC4365270 for this set.
